Cited source: patent US4372970A

Test system: Tribolium castaneum
Experiment: Topical activity against Tribolium castaneum (knockdown after 48 hours, LD50, relative to Resmethrin)
Assay type: in vivo
Details: Tribolium castaneum adults, from LD50
Measured Activity Relative to Resmethrin = 100, Tribolium accompanies every entry in the list below.

Example entries begin here.
{"COMPOUND": "CC(C)C(C(=O)OC(C#N)c1cccc(Oc2ccccc2)c1)c1ccc2cc(Br)oc2c1 (stereo not drawn) [Example 11]", "TEST VALUE": 88}
{"COMPOUND": "CC(C)C(C(=O)OC(C#N)c1cccc(Oc2ccccc2)c1)c1cccc2occc12 (stereo not drawn) [Example 8]", "TEST VALUE": 194}
{"COMPOUND": "CC(C)C(C(=O)OCc1cccc(Oc2ccccc2)c1)c1ccc2ccoc2c1 (stereo not drawn) [Example 1]", "TEST VALUE": 102.9}
{"COMPOUND": "Cc1oc2cc(C(C(=O)OC(C#N)c3cccc(Oc4ccccc4)c3)C(C)C)ccc2c1C (stereo not drawn) [Example 14]", "TEST VALUE": "< 17.5"}
{"COMPOUND": "CC(C)C(C(=O)OCc1cccc(Oc2ccccc2)c1)c1ccc2sccc2c1 (stereo not drawn) [Example 3]", "TEST VALUE": 29.2}

Pending compound:
Record CC(C)C(C(=O)OC(C#N)c1cccc(Oc2ccccc2)c1)c1ccc(Cl)c2oc(Br)cc12 (stereo not drawn) [Example 13] . Reported Activity Relative to Resmethrin = 100, Tribolium: < 2

* * *

Test system: Plutella xylostella
Assay: Knockdown of Plutella xylostella (cabbage leaf dip test)
Type: in vivo
Conditions: foliar, Plutella xylostella 3rd instar larvae, knockdown after 24 hours, read-out: Plutella % KD at 25.0 ppm
If the reported mortality at 25 ppm equals or exceeds 90%, assign Met. If not, assign Not met.

{"MOLECULE": "CC(C)C(C(=O)OCc1cccc(Oc2ccccc2)c1)c1ccc2sccc2c1 (stereo not shown)", "LABEL": "Not met"}

Req: Please tell me: is the molecule CC(C)C(C(=O)OC(C#N)c1cccc(Oc2ccccc2)c1)c1ccc2c(Cl)coc2c1 (stereo not shown) at or over 90% in terms of mortality at 25 ppm?
Resp: Met

Req: Does the molecule CC(C)C(C(=O)OCc1cccc(Oc2ccccc2)c1)c1ccc2ccoc2c1 (stereo not shown) have recorded mortality at 25 ppm that is 90% or more?
Resp: Met

Req: Dear colleague, could you confirm whether CC(C)C(C(=O)OCc1cccc(Oc2ccccc2)c1)c1cccc2occc12 (stereo not shown) has mortality at 25 ppm at or above 90%?
Resp: Not met

Req: Item CC(C)C(C(=O)OC(C#N)c1cccc(Oc2ccccc2)c1)c1ccc2ccoc2c1 (stereo not shown) with mortality at 25 ppm of 90% or above?
Resp: Met

* * *

Reported Megoura % KD at 1.0 ppm values follow for various compounds
Test system: Megoura vicae
Experiment: Knockdown of Megoura vicae (dip test)
Type: in vivo
Conditions: Megoura vicae adults, knockdown after 24 hours
Could you write the number and then its unit?

Below, each entry is followed by its recorded Megoura % KD at 1.0 ppm result.
{"COMPOUND": "CC(C)C(C(=O)OCc1cccc(Oc2ccccc2)c1)c1ccc2ccoc2c1 (stereo not shown)", "TEST VALUE": "63.7%"}
{"COMPOUND": "Cc1oc2cc(C(C(=O)OC(C#N)c3cccc(Oc4ccccc4)c3)C(C)C)ccc2c1C (stereo not shown)", "TEST VALUE": "93.3%"}
{"COMPOUND": "CC(C)C(C(=O)OC(C#N)c1cccc(Oc2ccccc2)c1)c1ccc(Cl)c2oc(Br)cc12 (stereo not shown)", "TEST VALUE": "86.6%"}
{"COMPOUND": "CC(C)C(C(=O)OCc1cccc(Oc2ccccc2)c1)c1ccc2sccc2c1 (stereo not shown)", "TEST VALUE": "61.25%"}
{"COMPOUND": "CC(C)C(C(=O)OCc1cccc(Oc2ccccc2)c1)c1cccc2occc12 (stereo not shown)", "TEST VALUE": "32.5%"}

# context switch: different compound, same Megoura % KD at 1.0 ppm
// sample CC(C)C(C(=O)OC(C#N)c1cccc(Oc2ccccc2)c1)c1ccc2cc(Br)oc2c1 (stereo not shown) , its Megoura % KD at 1.0 ppm was 35%
